- test.name: Plasma pharmacokinetics of ALM201 in Phase I patients (validated LC-MS/MS, Phoenix WinNonlin)
- condition.description: human, plasma, sc, 20 mg, Plasma concentration, geometric mean (CV%), 20 mg SC, day 18 cycle 2, 1.5 h after dosing, n = 1; LC-MS/MS
No end group written: not given here.
observation.type: level at 1.5 h (ng/mL)
Numbers only here, please. The scale is ng/mL.

Q) Need level at 1.5 h of IRQQPRDPPTETLELEVSPDPAS [ALM201] , thanks.
A) 352

----------
- test.name: Plasma pharmacokinetics of ALM201 in Phase I patients (validated LC-MS/MS, Phoenix WinNonlin)
- condition.description: human, plasma, sc, 80 mg, Plasma concentration, geometric mean (CV%), 80 mg SC, day 1 cycle 1, 5 h after dosing, n = 3; LC-MS/MS
No end group written: not given here.
observation.type: level at 5 h (ng/mL)
Numbers only here, please. The scale is ng/mL.

Q) Need level at 5 h of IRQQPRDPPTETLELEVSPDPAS [ALM201] , thanks.
A) 359
